Entries and their growth
System: E. coli TESEC Alr+ wild-type control
test-protocol: growth (OD600 after 10 h); higher = more growth (less inhibition)
recorded-conditions: compound 0.1 mM; raw OD600 reference: median of DMSO wells 0.49, cell-free background 0.052
Counter-ions that a name gives are not always drawn.
// no unit string in output, number only

// below: answered molecules
Cc1cc2c(s1)Nc1ccccc1N=C2N1CCN(C)CC1 ... 0.502
c1ccc2c(CC3=NCCN3)cccc2c1 [Naphazoline hydrochloride] ... 0.549
COc1ccc2c3c1O[C@H]1C[C@@H](O)C=C[C@@]31CCN(C)C2 [Galanthamine hydrobromide] ... 0.459
CC[C@]12CCCN3CCc4c(n(c5ccccc45)[C@@](O)(C(=O)OC)C1)[C@@H]32 ... 0.503

Fill in the blank: the reported growth of CC(=O)O[C@]1(C(C)=O)CC[C@H]2[C@@H]3C=C(Cl)C4=CC(=O)[C@@H]5C[C@@H]5[C@]4(C)[C@H]3CC[C@@]21C [Cyproterone acetate] is ____.
0.355

Lookup `COc1cc(C(=O)N2CCOCC2)cc(OC)c1OC`
0.616

Lookup `CCc1nc(N)nc(N)c1-c1ccc(Cl)cc1`
0.532

Lookup `O=C(O)c1cn(-c2ccc(F)cc2)c2cc(N3CCNCC3)c(F)cc2c1=O`
0.0534

Lookup CN(C)CCC(c1ccccc1)c1ccccn1 (configuration not stated) [Pheniramine maleate]
0.455

Lookup `O=C1OCCN1/N=C/c1ccc([N+](=O)[O-])o1`
0.0525

Lookup `COc1ccc([C@@H]2CC(=O)c3c(O)cc(O[C@@H]4O[C@H](CO[C@@H]5O[C@@H](C)[C@H](O)[C@@H](O)[C@H]5O)[C@@H](O)[C@H](O)[C@H]4O)cc3O2)cc1O`
0.521

Lookup C=CC[N@@+]12CC[C@@]34c5ccccc5N5/C=C6/[C@H]7C[C@H]8[C@@]9(CC[N@@+]8(CC=C)C/C7=C/CO)c7ccccc7N(/C=C(/[C@@H](C[C@@H]31)/C(=C\CO)C2)[C@H]54)[C@@H]69 [Alcuronium chloride]
0.456

Lookup `CCCc1cc(=O)[nH]c(=S)[nH]1`
0.55

Lookup CC(=O)[C@@]12O[C@](C)(c3ccccc3)O[C@@H]1C[C@H]1[C@@H]3CCC4=CC(=O)CC[C@]4(C)[C@H]3CC[C@@]12C [Algestone acetophenide]
0.381

====

Entries and their growth
System: E. coli TESEC Mtb Alr
test-protocol: growth (OD600 after 10 h); higher = more growth (less inhibition)
recorded-conditions: arabinose 1000000 nM; compound 0.1 mM; raw OD600 reference: median of DMSO wells 0.193, cell-free background 0.041
Structures can show the parent of a compound that is named as a salt.

Fill in the blank: the reported growth of `COc1ncnc(NS(=O)(=O)c2ccc(N)cc2)c1OC` is ____.
0.174

Lookup `O=C1Nc2ccc(Cl)cc2[C@@](C#CC2CC2)(C(F)(F)F)O1`
0.0396

Lookup CCCOc1ccc(C(=O)OCCN(CC)CC)cc1N [Proparacaine hydrochloride]
0.17

Lookup COC(=O)C1=C(C)NC(C)=C(C(=O)OCCN(C)Cc2ccccc2)C1c1cccc([N+](=O)[O-])c1 (stereo not drawn) [Nicardipine hydrochloride]
0.045

Lookup CN(C)CCOC(c1ccccc1)c1ccccc1.Cn1c(=O)c2[nH]c(Cl)nc2n(C)c1=O [Dimenhydrinate]
0.134

Lookup NC(=O)OCC(COC(N)=O)c1ccccc1 [Felbamate]
0.204

Lookup N=C(N)c1ccc(OCCCCCOc2ccc(C(=N)N)cc2)cc1 [Pentamidine isethionate]
0.0538

Lookup NC[C@@H]1O[C@@H](O[C@H]2[C@H](O)[C@@H](O[C@H]3O[C@H](CO)[C@@H](O)[C@H](N)[C@H]3O)[C@H](N)C[C@@H]2N)[C@@H](O)[C@H](O)[C@H]1O [Kanamycin A sulfate]
0.178
